- study.system: T1, mouse CNPase catalytic domain (mouse, UniProt P16330)
- T1 construct: 2′,3′-cyclic nucleotide 3′-phosphodiesterase (CNPase), mouse, catalytic (C-terminal phosphodiesterase) domain; As used in ITC, crystallisation and SEC-SAXS; also called mCNPase catalytic domain; C-terminal phosphodiesterase domain; source: E. coli Rosetta (DE3), pTH27 vector, autoinduction, purified (SEC)
- T1 sequence (P16330 179-398): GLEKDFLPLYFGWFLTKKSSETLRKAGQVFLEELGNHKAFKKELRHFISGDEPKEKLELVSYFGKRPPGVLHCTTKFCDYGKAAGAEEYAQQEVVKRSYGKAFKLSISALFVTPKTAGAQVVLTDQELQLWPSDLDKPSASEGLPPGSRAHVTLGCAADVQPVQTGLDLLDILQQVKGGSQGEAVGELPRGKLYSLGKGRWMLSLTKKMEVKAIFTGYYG
- assay.method.text: ITC; 8.5–11 μM CNPase catalytic domain in the cell, 88–95 μM Nb in the syringe; 20 mM HEPES, 150 mM NaCl, 0.5 mM TCEP, pH 7.5; +25°C; 1:1 binding model; single experiments
- test.parameters: both partners purified
Reported pKd by item:
Notebook: values listed as pKd are -log10 of the concentration (mol/L).

Previously resolved entries follow.
MaBP-10E (His6-maltose-binding protein fusion of NbCNP 10E) (VHH, as the VHH of m9; source: E. coli Shuffle T7, pHMGWA vector, purified; not shown: His6, N-terminal, kept) VHH: EVQLEESGGGLVQPGGSLRLSCAVSGITLDDFGIGWFRQAPGKEREGVACISPGYEHIYYADSAKGRFTISRDNAKNTVYLQMNNLKPWDTGVYYCAADNDLPDRLWGGSDWSDPSPYDYWGQGTQVTVSS :: 7.87
anti-CNPase nanobody NbCNP 8C (VHH, Extra disulphide between CDR2 and CDR3; source: E. coli Shuffle T7, His6-MaBP fusion (pHMGWA), purified (NiNTA, TEV, reverse NiNTA, SEC); not shown: His6, N-terminal, cleaved) VHH: EVQLEESGGGLVQAGGSLTLSCAASGFTFDDYAMGWYRQAPGKERVGVSCISRTDGYTYYLDSVKGRFTISTDHAKHTVYLQMNNLKPDDTGLYYCAADADPEYGSRCPDPYYGMDYWGKGILVTVSS :: 7.78
anti-CNPase nanobody NbCNP 10E (VHH, Purified as described for anti-Arc Nbs (Markusson et al., 2022); source: E. coli, pTH27 vector, purified (SEC, TEV, reverse NiNTA, SEC); not shown: His6, N-terminal, cleaved) VHH: EVQLEESGGGLVQPGGSLRLSCAVSGITLDDFGIGWFRQAPGKEREGVACISPGYEHIYYADSAKGRFTISRDNAKNTVYLQMNNLKPWDTGVYYCAADNDLPDRLWGGSDWSDPSPYDYWGQGTQVTVSS :: 8.01

Consider the record given below.
// returns reported pKd for input anti-CNPase nanobody NbCNP 7E (VHH, source: E. coli Shuffle T7, His6-MaBP fusion (pHMGWA), purified (NiNTA, TEV, reverse NiNTA, SEC); not shown: His6, N-terminal, cleaved) VHH: EVQLEESGGGWVHPGGSLRLSCAASGNVFGVNTMAWYRQAPGKQREQRELVASITDYGTTEYADSVKGRFTISGDNAKATVYLQMNSLKPEDTAVYYCNMDLTVMTATSSLYAYDYWGQGTQVTVSS
7.08
